Target: human ErbB2, full length, on cells (human, UniProt P04626 23-1255)
Experiment: cell-based or functional assay
Readings of EC50 (ng/ml), inhibition of SKBR3 cell proliferation for the listed binders
Numbers only here, please. The scale is ng/mL.

Some entries whose results are on file:
monoclonal antibody 1.100.1 (antibody, V domains shown, Fully human IgG (gamma/kappa) from a XenoMouse XM3B-3 hybridoma; constant regions not tied to it; also called 1.100.2; 1.100.3) VH: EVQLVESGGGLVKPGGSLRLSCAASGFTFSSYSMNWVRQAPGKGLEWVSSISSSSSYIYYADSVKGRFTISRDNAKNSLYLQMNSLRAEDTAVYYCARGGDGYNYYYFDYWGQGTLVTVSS VL: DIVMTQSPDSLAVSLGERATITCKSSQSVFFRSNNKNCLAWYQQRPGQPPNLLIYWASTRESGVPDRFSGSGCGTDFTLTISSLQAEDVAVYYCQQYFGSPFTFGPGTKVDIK : 61.3
monoclonal antibody 1.14.1 (antibody, V domains shown, Fully human IgG (gamma/kappa) from a XenoMouse XM3B-3 hybridoma; constant regions not tied to it) VH: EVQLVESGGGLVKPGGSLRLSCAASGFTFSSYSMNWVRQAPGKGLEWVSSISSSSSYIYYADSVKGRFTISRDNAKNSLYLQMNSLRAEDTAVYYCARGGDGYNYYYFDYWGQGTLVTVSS VL: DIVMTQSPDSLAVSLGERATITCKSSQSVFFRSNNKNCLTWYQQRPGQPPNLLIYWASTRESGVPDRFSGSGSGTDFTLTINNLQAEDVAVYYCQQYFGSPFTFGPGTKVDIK : 35.7

I'd like to know its EC50 (ng/ml), inhibition of SKBR3 cell proliferation. The binder in question is monoclonal antibody 1.39 (antibody, V domains shown, Fully human IgG (gamma/kappa) from a XenoMouse XM3B-3 hybridoma; constant regions not tied to it; also called 1.39.1; 1.39.2) VH: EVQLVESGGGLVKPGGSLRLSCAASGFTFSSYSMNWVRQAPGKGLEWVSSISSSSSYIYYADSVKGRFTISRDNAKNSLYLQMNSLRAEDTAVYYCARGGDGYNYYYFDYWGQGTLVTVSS VL: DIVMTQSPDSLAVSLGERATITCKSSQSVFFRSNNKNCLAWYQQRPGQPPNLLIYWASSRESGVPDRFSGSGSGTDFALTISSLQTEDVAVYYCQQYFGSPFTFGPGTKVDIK
68.9
